Hey, just so you know, these numbers are from patent US20120040976A1.

Would you kindly list solubility for each of these molecules?
Assay: Average solubility
Assay type: physicochemical

Please report the recorded solubility for CC(C)C(N)C(=O)Oc1ccc(/C=C/C(=O)/C=C(O)/C=C/c2ccc(OC(=O)C(N)C(C)C)cc2)cc1 (stereo not drawn) [Compound 33] .
18.2 µg/mL

Another molecule to look at: COc1cc(/C=C/C(=O)/C=C(O)/C=C/c2ccc(OC(=O)C(N)C(C)C)c(OC)c2)ccc1OC(=O)C(N)C(C)C (stereo not drawn) [Compound 35]
22.8 µg/mL

Another molecule to look at: COc1ccc(F)cc1/C=C/C(=O)/C=C(O)/C=C/c1cc(F)ccc1OC [Compound 26]
0.44 µg/mL
